Target: human Claudin-6 (CLDN6) (human) (UniProt P56747)
Test: FACS, 1.5 ug Ab, OVCA429 cells (2nd Ab only 885.77)
observed property: FACS fluorescence
Lab note: jot down the number only; don't add units.

I am curious: what FACS fluorescence value has been reported for AB3-5 (antibody, V domains shown, humanized) VH: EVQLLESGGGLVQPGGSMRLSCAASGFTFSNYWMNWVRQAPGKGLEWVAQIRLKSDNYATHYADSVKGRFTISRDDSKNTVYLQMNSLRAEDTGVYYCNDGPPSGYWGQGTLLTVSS VL: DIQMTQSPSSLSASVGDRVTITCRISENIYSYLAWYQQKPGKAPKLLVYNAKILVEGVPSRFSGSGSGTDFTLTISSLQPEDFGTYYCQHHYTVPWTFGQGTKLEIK ?
2950

Try the binder AB3-2 (antibody, V domains shown, humanized) VH: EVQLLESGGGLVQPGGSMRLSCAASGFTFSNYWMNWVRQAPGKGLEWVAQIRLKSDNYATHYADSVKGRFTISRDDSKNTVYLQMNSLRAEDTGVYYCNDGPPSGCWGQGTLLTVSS VL: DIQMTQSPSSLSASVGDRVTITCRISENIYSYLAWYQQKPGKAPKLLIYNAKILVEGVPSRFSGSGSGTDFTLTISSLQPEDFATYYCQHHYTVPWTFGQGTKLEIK
85900

Would you mind doing AB4-chim (antibody, V domains shown) VH: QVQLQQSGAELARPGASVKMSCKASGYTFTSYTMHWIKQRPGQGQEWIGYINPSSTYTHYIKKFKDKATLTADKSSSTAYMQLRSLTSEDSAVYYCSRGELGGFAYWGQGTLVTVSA VL: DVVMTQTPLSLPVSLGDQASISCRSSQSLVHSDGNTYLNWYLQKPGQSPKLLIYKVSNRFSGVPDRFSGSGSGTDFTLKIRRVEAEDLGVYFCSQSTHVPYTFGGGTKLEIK as well?
64800

These entries and their values trace back to patent US20230049752A1.
